- PROCEDURE SUMMARY: Pharmacokinetic experiments in rats
- ASSAY CONTEXT: male, Sprague-Dawley, rat, in vivo, po, 10 mg/kg
MEASURED METRIC: Cmax (µg/mL)

INSERT INTO results (record_smiles, measured_metric, data_value) VALUES
  ('C=CC(=O)N1CCC[C@@H](n2nc(-c3ccc(Oc4ccccc4)cc3)c3c(N)ncnc32)C1', 'Cmax', 0.25);

###

- Test system: RAMOS
- PROCEDURE SUMMARY: RAMOS IC50
- Assay type: cell-based
- ASSAY CONTEXT: Homo sapiens
pIC50: −log10 of the molar value.
MEASURED METRIC: pIC50

INSERT INTO results (compound, data_value) VALUES
  ('C=CC(=O)N1CCC[C@H](c2cn(-c3ccc(Oc4ccccc4)cc3)c3c(N)ncnc23)C1 [Example 4]', '> 7.00'),
  ('C=CC(=O)N1CCC[C@@H](c2cn(-c3ccc(Oc4ccccc4)cc3)c3c(N)ncnc23)C1 [Example 3]', '> 7.00'),
  ('C=CC(=O)N1CCC[C@@H](c2nc(-c3ccc(Oc4ccccc4)cc3)c3c(N)nccn23)C1 [Example 7]', '> 7.00'),
  ('C=CC(=O)N1CCC[C@H](c2nn(-c3ccc(Oc4ccccc4)cc3)c3c(N)ncnc23)C1 [Example 6]', '> 7.00'),
  ('C=CC(=O)N1CCC[C@@H](n2nc(-c3ccc(Oc4ccccc4)cc3)c3c(N)ncnc32)C1 [Ibrutinib]', '> 7.00'),
  ('C=CC(=O)N1CCC[C@@H](c2nn(-c3ccc(Oc4ccccc4)cc3)c3c(N)ncnc23)C1 [Example 5]', '> 7.00');

###

- PROCEDURE SUMMARY: in vivo
- ASSAY CONTEXT: male, Sprague-Dawley, rat, po, 10 mg/kg
MEASURED METRIC: AUC(0-t)

INSERT INTO results (record_smiles, measured_metric, data_value) VALUES
  ('C=CC(=O)N1CCC[C@@H](c2nc(-c3ccc(Oc4ccccc4)cc3)c3c(N)nccn23)C1', 'AUC(0-t)', '0.931 µg·h/mL');

###

- PROCEDURE SUMMARY: Pharmacokinetic experiments in rats
- ASSAY CONTEXT: male, Sprague-Dawley, rat, in vivo, iv, 0.5 mg/kg
MEASURED METRIC: Tmax (min)

INSERT INTO assay_data (compound, data_value) VALUES
  ('C=CC(=O)N1CCC[C@@H](n2nc(-c3ccc(Oc4ccccc4)cc3)c3c(N)ncnc32)C1 [Ibrutinib]', 4.8);

###

- PROCEDURE SUMMARY: Pharmacokinetic experiments in rats
- ASSAY CONTEXT: male, Sprague-Dawley, rat, in vivo, po, 10 mg/kg
MEASURED METRIC: AUC(0-t) (ng·h/mL)

INSERT INTO assay_data (compound, data_value) VALUES
  ('C=CC(=O)N1CCC[C@@H](n2nc(-c3ccc(Oc4ccccc4)cc3)c3c(N)ncnc32)C1 [Ibrutinib]', 727);

###

Overview of recorded microsomal CLint at 1 μM for various molecules
- PROCEDURE SUMMARY: Metabolic stability in human liver microsomes
- Type: in vitro ADME
- ASSAY CONTEXT: pH 7.4, 1 μM compound, 0.5 mg/mL protein
MEASURED METRIC: microsomal CLint at 1 μM (µL/min/mg)

INSERT INTO assay_data (record_smiles, measured_metric, data_value) VALUES
  ('C=CC(=O)N1CCC[C@H](c2nn(-c3ccc(Oc4ccccc4)cc3)c3c(N)ncnc23)C1', 'microsomal CLint at 1 μM', 111),
  ('C=CC(=O)N1CCC[C@@H](c2cn(-c3ccc(Oc4ccccc4)cc3)c3c(N)ncnc23)C1', 'microsomal CLint at 1 μM', 1100),
  ('C=CC(=O)N1CCC[C@@H](c2nn(-c3ccc(Oc4ccccc4)cc3)c3c(N)ncnc23)C1', 'microsomal CLint at 1 μM', 922),
  ('C=CC(=O)N1CCC[C@H](c2cn(-c3ccc(Oc4ccccc4)cc3)c3c(N)ncnc23)C1', 'microsomal CLint at 1 μM', 399),
  ('C=CC(=O)N1CCC[C@@H](c2nc(-c3ccc(Oc4ccccc4)cc3)c3c(N)nccn23)C1', 'microsomal CLint at 1 μM', 243);
